Data origin: patent US20130190268A1

Assayed target: biotinidase (Homo sapiens)
Construct: Ten individual batches of human plasma originating from 5 men and 5 women; from tissue; host or cells: pooled human plasma (5 men, 5 women), sodium citrate
Sequence (P43251 42-543): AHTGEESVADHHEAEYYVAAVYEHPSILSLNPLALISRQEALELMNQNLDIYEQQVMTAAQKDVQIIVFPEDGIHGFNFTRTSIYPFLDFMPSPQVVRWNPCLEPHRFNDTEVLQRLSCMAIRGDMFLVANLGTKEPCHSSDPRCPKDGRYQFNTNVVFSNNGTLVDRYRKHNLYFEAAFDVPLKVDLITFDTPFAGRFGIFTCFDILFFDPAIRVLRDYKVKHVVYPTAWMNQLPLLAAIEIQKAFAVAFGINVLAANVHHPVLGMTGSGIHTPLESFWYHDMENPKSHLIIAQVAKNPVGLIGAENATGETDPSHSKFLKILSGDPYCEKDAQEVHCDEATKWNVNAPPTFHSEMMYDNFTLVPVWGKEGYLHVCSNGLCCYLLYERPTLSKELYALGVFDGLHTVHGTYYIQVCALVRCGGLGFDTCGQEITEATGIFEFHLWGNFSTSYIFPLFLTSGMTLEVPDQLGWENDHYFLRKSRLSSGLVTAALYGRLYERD
Assay text: Metabolic stability in human plasma medium at pH 6.0 with respect to biotinidase activity
Format: in vitro ADME
Measurement parameters: pooled human plasma, pH 6.0, 1 μM, 37° C., LC/MS-MS
Counter-ions that a name gives are not always drawn.
metabolization percentage (compound metabolized after 24 h): recorded values
Observed property: metabolization percentage (compound metabolized after 24 h) (%)

COC1OC(COS(=O)(=O)O)C(OC2OC(C(=O)O)C(OC3OC(COS(=O)(=O)O)C(OC4OC(C(=O)O)C(OC5OC(COS(=O)(=O)O)C(OC)C(OC)C5NC(=O)CCCCCN(C)C(=O)CCCCC5SCC6NC(=O)NC65)C(OC)C4OC)C(OS(=O)(=O)O)C3OS(=O)(=O)O)C(OC)C2OC)C(OS(=O)(=O)O)C1OS(=O)(=O)O (centres unmarked) [Compound 3, sodium salt]: 0.8
COC1OC(COS(=O)(=O)O)C(OC2OC(C(=O)O)C(OC3OC(COS(=O)(=O)O)C(OC4OC(C(=O)O)C(OC5OC(COS(=O)(=O)O)C(OC)C(OC)C5NC(=O)CCCCCOCCCCCC5SCC6NC(=O)NC65)C(OC)C4OC)C(OS(=O)(=O)O)C3OS(=O)(=O)O)C(OC)C2OC)C(OS(=O)(=O)O)C1OS(=O)(=O)O (centres unmarked) [Compound 1, sodium salt]: 1.7
COC1OC(COS(=O)(=O)O)C(OC2OC(C(=O)O)C(OC3OC(COS(=O)(=O)O)C(OC4OC(C(=O)O)C(OC5OC(COS(=O)(=O)O)C(OC)C(OC)C5NC(=O)CCCCCNC(=O)CCCCC5SCC6NC(=O)NC65)C(OC)C4OC)C(OS(=O)(=O)O)C3OS(=O)(=O)O)C(OC)C2OC)C(OS(=O)(=O)O)C1OS(=O)(=O)O (centres unmarked) [Idrabiotaparinux, idrabiotaparinux, reference compound]: 15.9
COC1OC(COS(=O)(=O)O)C(OC2OC(C(=O)O)C(OC3OC(COS(=O)(=O)O)C(OC4OC(C(=O)O)C(OC5OC(COS(=O)(=O)O)C(OC)C(OC)C5NC(=O)CCCCNC(=O)NCCCCC5SCC6NC(=O)NC65)C(OC)C4OC)C(OS(=O)(=O)O)C3OS(=O)(=O)O)C(OC)C2OC)C(OS(=O)(=O)O)C1OS(=O)(=O)O (centres unmarked) [Compound 4, sodium salt]: 5.3
COC1OC(COS(=O)(=O)O)C(OC2OC(C(=O)O)C(OC3OC(COS(=O)(=O)O)C(OC4OC(C(=O)O)C(OC5OC(COS(=O)(=O)O)C(OC)C(OC)C5NC(=O)CCCCCN(C)CCCCCC5SCC6NC(=O)NC65)C(OC)C4OC)C(OS(=O)(=O)O)C3OS(=O)(=O)O)C(OC)C2OC)C(OS(=O)(=O)O)C1OS(=O)(=O)O (centres unmarked) [Compound 2, sodium salt]: −3.3
